- test.target: ERα LBD (Homo sapiens)
- Construct: host or cells: HEK293
- Sequence (P03372 311-547 limits assumed): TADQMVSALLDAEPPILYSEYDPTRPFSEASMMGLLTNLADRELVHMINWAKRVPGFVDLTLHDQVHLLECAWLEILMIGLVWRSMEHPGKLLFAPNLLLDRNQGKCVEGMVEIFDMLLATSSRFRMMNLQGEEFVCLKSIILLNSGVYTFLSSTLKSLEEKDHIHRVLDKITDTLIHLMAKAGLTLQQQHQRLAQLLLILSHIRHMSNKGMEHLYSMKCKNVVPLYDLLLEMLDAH
- assay.protocol: Ability to bind to ERα: pBIND-ERα LBD / GAL4 luciferase reporter in HEK293 cells
- Format: cell-based
- Parameters: key: firefly luciferase / Renilla luciferase luminescence ratio
- test.conditions: 1 nM; negative control 0.00847035
metric.name: relative light unit (RLU), ligand binding activity ERα

Observe how each entry below is paired with its result.
CC=CC(Cc1ccc(O)cc1)c1ccc(O)cc1 (stereo not shown): 0.006803
O=C(NC(Cc1ccc(O)cc1)c1ccc(O)cc1)C(F)(F)F (stereo not shown): 0.008272
Oc1ccc(CC(c2ccc(O)cc2)C2CC2)cc1 (stereo not shown): 0.01123

A = Oc1ccc(CC(c2ccc(O)cc2)c2ncon2)cc1 (stereo not shown)
B = Oc1ccc(C(C=C(Cl)Cl)Cc2c(F)cc(O)cc2F)cc1 (stereo not shown)
Exercise: Which value of relative light unit (RLU), ligand binding activity ERα is smaller, the one for A or the one for B ? Mark your selection by writing its label.
Key: A
(A: 0.02004, B: 0.122)

1 = Oc1ccc(CC(c2ccc(O)cc2)c2ccn[nH]2)cc1 (stereo not shown)
2 = Oc1ccc(CC(C=CF)c2ccc(O)cc2)cc1 (stereo not shown)
3 = Oc1ccc(CC(C=C(F)F)c2ccc(O)cc2F)c(F)c1 (stereo not shown)
4 = Oc1ccc(CC(C=C(F)F)c2ccc(O)cc2)cc1 (stereo not shown)
Exercise: Arrange the 4 compounds from largest to smallest relative light unit (RLU), ligand binding activity ERα. To answer, arrange all of the labels according to the requested order.
Key: 3, 4, 1, 2

P = Oc1ccc(CC(c2ccc(O)cc2)c2cocn2)cc1 (stereo not shown)
Q = CCC(C)C(Cc1ccc(O)cc1)c1ccc(O)cc1 (stereo not shown)
R = Oc1ccc(CC(C=C(Cl)Cl)c2ccc(O)cc2F)c(F)c1 (stereo not shown)
Exercise: Please order the records by their reported relative light unit (RLU), ligand binding activity ERα, lowest number first. Your reply should list the labels following the order given in the request.
Key: Q, P, R
(Q: 0.008097, P: 0.01714, R: 0.05395)

Source: patent US11453632B2
